The measurements presented in this section are drawn from PubChem BioAssay (NCI).

So I've got a bunch of compounds here, and I need their growth values.
test system: LOX IMVI melanoma; experiment: NCI-60 one-dose screen, 48 h (100 = growth as untreated, 0 = no growth, -100 = all killed); conditions: 10 µM unless noted
This is part of a sample that, as a whole, favours compounds with a hit. Of some 83,000 tested, about 20% had one in any assay.
# number only, unit % dropped from output

Challenge: Param readout= growth; system= LOX IMVI melanoma; entry= N#CC1C(c2ccc(Cl)cc2)=Nc2c(c(-c3ccccc3)nn2-c2ccccc2)C12C(=O)Nc1ccc(Cl)cc12 (stereo not given) ; returns value.
Response given: 43.9

Challenge: Param readout= growth; system= LOX IMVI melanoma; entry= CCCCC(=O)Nc1c(C(=O)Nc2ccccc2)sc2nc3c(cc12)C(OC(=O)CCCC)CCC3 (stereo not given) ; returns value.
Response given: 85.1

Challenge: Param readout= growth; system= LOX IMVI melanoma; entry= `C#CCN1C(=O)c2ccccc2N(CC#C)C12CCN(Cc1cn(CC(=O)Nc3ccccc3C(N)=O)nn1)CC2` ; returns value.
Response given: 87

Challenge: Param readout= growth; system= LOX IMVI melanoma; entry= `C=C1C(=O)O[C@H]2[C@H]1CC/C(COC(=O)CCCCC(=O)OC/C1=C/CC[C@@]3(C)O[C@H]3[C@H]3OC(=O)C(=C)[C@@H]3CC1)=C\CC[C@@]1(C)O[C@@H]21` ; returns value.
Response given: 52.2

Challenge: Param readout= growth; system= LOX IMVI melanoma; entry= O=C1CC23OC4ON=C(Br)C4C2C(O)c2ccccc2N13 (stereo not given) ; returns value.
Response given: 88.8
